Origin of the recorded values: ChEMBL document CHEMBL2401696

TEST_SYSTEM: Prostaglandin G/H synthase 2 (Ovis aries)
ASSAY_COMMENT: Inhibition of ovine COX-2 assessed as using arachidonic acid as substrate at 10 uM preincubated for 5 mins prior to substrate addition measured after 2 hrs by enzyme immunoassay relative to control
MEASUREMENT_SETUP: in the assay text read “after 2 mins” for “after 2 hrs”
Active and inactive are the calls of the source. The calls are words filed in the database; no cut-off is given here.
QUANTITY_KIND: inhibition

INSERT INTO measurements (chemical_structure, quantity_kind, val) VALUES
  ('CS(=O)(=O)c1ccc(C2=C(c3ccccc3Cl)C(=O)OC2)cc1', 'inhibition', '7.97%'),
  ('COc1cc(/C=C2\OC(=O)C(c3ccccc3Cl)=C2c2ccc(S(C)(=O)=O)cc2)ccc1O', 'inhibition', '14.9%'),
  ('CS(=O)(=O)c1ccc(C2=C(c3ccc(F)cc3)C(=O)O/C2=C\c2cccc3ccccc23)cc1', 'inhibition', 'inactive'),
  ('CS(=O)(=O)c1ccc(C2=C(c3ccccc3)C(=O)O/C2=C\c2ccc(Br)cc2)cc1', 'inhibition', 'inactive'),
  ('COc1ccc(/C=C2\OC(=O)C(c3ccc(F)cc3)=C2c2ccc(S(C)(=O)=O)cc2)cc1', 'inhibition', 'inactive');
